So I've got a bunch of compounds here, and I need their solubility kinetic values.
- test conditions: buffer; pH 7.4; 200.0 µM

Quick one: solubility kinetic of Cc1ccc2oc(C(=O)N3CCN(CCO)CC3)c(C)c2c1 ? > 45.4 µg/mL

Quick one: solubility kinetic of CN=C(NC1CCCCC1)c1ccc([N+](=O)[O-])cc1 ? > 39.2 µg/mL

Quick one: solubility kinetic of Cc1cc(Cc2cc(C)c(N)cc2C)c(C)cc1N ? > 38.2 µg/mL

Quick one: solubility kinetic of CC(=O)N(CN1C(=O)CCC1=O)c1ccc(Cl)c(Cl)c1 ? > 47.3 µg/mL

Quick one: solubility kinetic of O=C(NCCC(=O)N1CCCCC1)c1ccccc1Cl ? > 44.2 µg/mL
